// values below are reported Binding (OD450)
Tested On: 4-1BB (coated on ELISA plate) (UniProt Q07011 24-186, limits assumed)
Procedure Summary: ELISA on coated 4-1BB, supernatant
Give a bare numeral; the unit OD450 is implied.

Q) Quote Binding (OD450) reported for 8B10 (ligand, also called 4-1BBL variant 8B10 (phagemid clone, bacterial supernatant)) 4-1BBL variant: ACPWAVSGARASPGSAASPRLREGPELSPDDPAGLLDLRQGMFAQLVAQNVLLIDGPLSWYTDPGLAGVSLTGGLSYKEDTKELVVAKAGVYYVFFQLELRRVVAGMGSGSVSLALHLQPLRSAAGAAALALTVDLPPASSEARNSAFGFQGRLLHLSAGQRLGVHLHTEARARHSWQLTQGATVLGLFRVTPEIPAGLPSPRSE please.
A) 1.75

Q) Quote Binding (OD450) reported for 1D2 (ligand, also called 4-1BBL variant 1D2 (phagemid clone, bacterial supernatant)) 4-1BBL variant: ACPWAVSGARASPGSAASPRLREGPELSPDDPAGLLDLRQGMFAQLVAQNVLLIDGPLSWYEDPGLAGVSLTGGLSYKEDTKELVVAKAGVYYVFFQLELRRVVAGTGSGSVSLALHLQPLRSAAGAAALALTVDLPPASSEARNSAFGFQGRLLHLSAGQRLGVHLHTEARARHALQLTQGATVLGLFRVTPEIPAGLPSPRSE please.
A) 1.35

Q) Quote Binding (OD450) reported for 4C2 (ligand, also called 4-1BBL variant 4C2 (phagemid clone, bacterial supernatant)) 4-1BBL variant: ACPWAVSGARASPGSAASPRLREGPELSPDDPAGLLDLRQGMFAQLVAQNVLLIDGPLSWYPDPGLAGVSLTGGLSYKEDTKELVVAKAGVYYVFFQLELRRVVAGRGSGSVSLALHLQPLRSAAGAAALALTVDLPPASSEARNSAFGFQGRLLHLSAGQRLGVHLHTEARARHAWQFTQGATVLGLFRVTPEIPAGLPSPRSE please.
A) 1.12

Q) Quote Binding (OD450) reported for 5D9 (ligand, also called 4-1BBL variant 5D9 (phagemid clone, bacterial supernatant)) 4-1BBL variant: ACPWAVSGARASPGSAASPRLREGPELSPDDPAGLLDLRQGMFAQLVAQNVLLIDGPLSFYSDPGLAGVSLTGGLSYKEDTKELVVAKAGVYYVFFQLELRRVVAGTGSGSVSLALHLQPLRSAAGAAALALTVDLPPASSEARNSAFGFQGRLLHLSAGQRLGVHLHTEARARHAWQMTQGATVLGLFRVTPEIPAGLPSPRSE please.
A) 1.98

Q) Quote Binding (OD450) reported for 4E10 (ligand, also called 4-1BBL variant 4E10 (phagemid clone, bacterial supernatant)) 4-1BBL variant: ACPWAVSGARASPGSAASPRLREGPELSPDDPAGLLDLRQGMFAQLVAQNVLLIDGPLSWYPDPGLAGVSLTGGLSYKEDTKELVVAKAGVYYVFFQLELRRVVAREGSGSVSLALHLQPLRSAAGAAALALTVDLPPASSEARNSAFGFQGRLLHLSAGQRLGVHLHTEARARHAMQLTQGATVLGLFRVTPEIPAGLPSPRSE please.
A) 0.975

Q) Quote Binding (OD450) reported for 8E2 (ligand, also called 4-1BBL variant 8E2 (phagemid clone, bacterial supernatant)) 4-1BBL variant: ACPWAVSGARASPGSAASPRLREGPELSPDDPAGLLDLRQGMFAQLVAQNVLLIDGPLSWYPDPGLAGVSLTGGLSYKEDTKELVVAKAGVYYVFFQLELRRVVAFEGSGSVSLALHLQPLRSAAGAAALALTVDLPPASSEARNSAFGFQGRLLHLSAGQRLGVHLHTEARARHSWQLTQGATVLGLFRVTPEIPAGLPSPRSE please.
A) 0.392
